# Tested on: TgCDPK1 (Toxoplasma gondii, UniProt Q9BJF5)
# Sequence (Q9BJF5 1-507): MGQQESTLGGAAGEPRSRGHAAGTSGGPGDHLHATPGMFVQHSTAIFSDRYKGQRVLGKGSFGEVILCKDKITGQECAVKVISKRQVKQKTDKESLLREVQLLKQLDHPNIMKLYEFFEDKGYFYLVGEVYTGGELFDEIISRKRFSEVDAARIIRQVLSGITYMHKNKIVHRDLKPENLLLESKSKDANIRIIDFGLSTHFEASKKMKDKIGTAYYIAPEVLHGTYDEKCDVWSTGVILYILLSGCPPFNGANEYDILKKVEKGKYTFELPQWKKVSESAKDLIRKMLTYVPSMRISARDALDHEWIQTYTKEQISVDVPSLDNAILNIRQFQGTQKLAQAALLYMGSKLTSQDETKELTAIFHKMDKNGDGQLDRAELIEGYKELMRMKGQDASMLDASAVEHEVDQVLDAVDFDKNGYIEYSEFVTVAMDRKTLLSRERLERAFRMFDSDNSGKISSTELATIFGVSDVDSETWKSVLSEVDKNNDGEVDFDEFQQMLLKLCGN
# Assay comment: biochemical
Output 1.0 for records whose IC50 is lower than 20 nM, 0.0 for records at or above 20 nM.

COCc1ccc2cc(-c3nn(CC(O)(C(F)(F)F)C(F)(F)F)c4ncnc(N)c34)ccc2c1 [Example 52] : 0.0
Nc1ncnc2c1c(-c1ccc3nc(OC4CC4)ccc3c1)nn2CC1(O)CCOCC1 [Example 62] : 1.0
Nc1ncnc2c1c(-c1ccc3nc(OC4CC4)ccc3c1)nn2CC1CNC1 [Example 40] : 1.0
COC(=O)COc1ccc2cc(-c3nn(CC4CCNCC4)c4ncnc(N)c34)ccc2n1 [Example 89] : 0.0
CC(C)(Cn1nc(-c2ccc3cc(OC4CC4)ccc3c2)c2c(N)ncnc21)C(=O)O [Example 76] : 1.0
CC(C)(CO)Cn1nc(-c2ccc3nc(OCC(F)(F)F)ccc3c2)c2c(N)ncnc21 [Example 2] : 1.0
CC(C)n1nc(-c2ccc3cc(OCCO)ccc3c2)c2c(N)ncnc21 [Example 118] : 1.0

Ask: Bench note: check whether CCOc1ccc2ccc(-c3nn(CC(C)C)c4ncnc(N)c34)cc2c1 [Example 47] shows IC50 below 20 nM
Result: 1.0
